- study target: interaction between recombinantly-expressed B2 subunit and pure rabbit muscle F-actin (Homo sapiens, UniProt P21281)
- Construct: made in house
- Sequence (P21281 whole entry): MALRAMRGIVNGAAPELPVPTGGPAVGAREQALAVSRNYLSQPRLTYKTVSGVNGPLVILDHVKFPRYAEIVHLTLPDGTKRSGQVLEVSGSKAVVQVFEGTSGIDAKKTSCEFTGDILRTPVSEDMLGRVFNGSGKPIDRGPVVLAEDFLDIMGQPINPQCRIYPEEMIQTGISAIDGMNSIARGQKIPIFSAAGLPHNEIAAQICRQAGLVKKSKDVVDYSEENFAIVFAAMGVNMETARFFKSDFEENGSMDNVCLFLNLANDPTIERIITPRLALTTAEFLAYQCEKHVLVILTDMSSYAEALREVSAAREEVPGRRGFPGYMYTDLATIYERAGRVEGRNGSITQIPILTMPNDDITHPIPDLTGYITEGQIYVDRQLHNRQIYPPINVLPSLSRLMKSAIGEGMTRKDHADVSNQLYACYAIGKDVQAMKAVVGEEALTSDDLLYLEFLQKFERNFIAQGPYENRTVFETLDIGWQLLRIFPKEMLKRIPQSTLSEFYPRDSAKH
- assay info: pelleting assay of B subunit binding to F-actin
- test conditions: 100 uM inhibitor compound; recombinant B subunit 1 μM, F-actin 2 μM; densitometry of SDS-PAGE gels
Answer FALSE if % inhibition is under 4%, and TRUE if it is 4% or more.

For this compound, is measured % inhibition 4% or higher? ON=C(C[N+]12CN3CN(CN(C3)C1)C2)c1ccc(I)cc1 [Binhib 10]
FALSE

For this compound, is measured % inhibition 4% or higher? Brc1ccc(C[N+]23CN4CN(CN(C4)C2)C3)cc1.[Br-] [Binhib 9]
TRUE

For this compound, is measured % inhibition 4% or higher? O=C(C[N+]12CN3CN(CN(C3)C1)C2)c1ccc2ccccc2c1 [Binhib 36]
FALSE

For this compound, is measured % inhibition 4% or higher? Clc1cc(Cl)c(C[N+]23CN4CN(CN(C4)C2)C3)cc1Cl.[Cl-] [Binhib 1]
TRUE

For this compound, is measured % inhibition 4% or higher? CC(C)Cc1ccc(C[N+]23CN4CN(CN(C4)C2)C3)cc1 [Binhib 20]
TRUE

For this compound, is measured % inhibition 4% or higher? BrC=C(Br)C[N+]12CN3CN(CN(C3)C1)C2 [Binhib 18]
FALSE

For this compound, is measured % inhibition 4% or higher? O=C(C[N+]12CN3CN(CN(C3)C1)C2)c1ccc(Br)cc1 [Binhib 24]
TRUE

###

Assign inhibition at 100 µM to each entry below.
- study target: interaction between recombinantly-expressed B2 subunit and pure rabbit muscle F-actin (Homo sapiens)
- Construct: made in house
- assay info: pelleting assay of B subunit binding to F-actin
- test conditions: 100 uM inhibitor compound; recombinant B subunit 1 μM, F-actin 2 μM; densitometry of SDS-PAGE gels; read-out: % inhibition
Field format: number, assumed %, no unit text.

inhibition at 100 µM reported for this compound `O=C(C[N+]12CN3CN(CN(C3)C1)C2)c1ccc(Cl)cc1.[I-]` : 65

inhibition at 100 µM reported for this compound `CCn1cc(C(=O)O)c(=O)c2cc(F)c(N3CCNCC3)nc21` : 92

inhibition at 100 µM reported for this compound `Cn1c(=O)c2nc(SSc3nc4c(=O)n(C)c(=O)n(C)c4[nH]3)[nH]c2n(C)c1=O` : 2

inhibition at 100 µM reported for this compound `S=C(S)NCCN1CCNCC1` : 3

inhibition at 100 µM reported for this compound `COc1cccc(CN2CCN(N)CC2)c1` : 0

inhibition at 100 µM reported for this compound C=C1C23C(CCCC2NC)CCC2(C)C4C(C(C)=O)C(O)CC4(C)CCC123 (stereo not shown) : 0

inhibition at 100 µM reported for this compound CCOC(=O)C(Cc1c[nH]c2ccccc12)NCCN (stereo not shown) : 0

###

Assign % inhibition to each entry below.
- study target: interaction between recombinantly-expressed B2 subunit and pure rabbit muscle F-actin (Homo sapiens)
- Construct: made in house
- assay info: pelleting assay of B subunit binding to F-actin
- test conditions: 100 uM inhibitor compound; recombinant B subunit 1 μM, F-actin 2 μM; densitometry of SDS-PAGE gels
Field format: number, assumed %, no unit text.

% inhibition reported for this molecule COC(=O)C1CC23CCCN4CCC5(c6cccc(OC)c6N(C=O)C15CC2)C43 (stereo not drawn) [Binhib 35] : 4

% inhibition reported for this molecule Cc1nc2ccccc2cc1C[N+]12CN3CN(CN(C3)C1)C2 [Binhib 30] : 4

% inhibition reported for this molecule COc1ccc(C(=O)C[N+]23CN4CN(CN(C4)C2)C3)cc1 [Binhib 41] : 4
